# Assay Method Text: Pharmacokinetics in male Sprague Dawley rats
# Format: in vivo, rat
# Condition Description: male, Sprague Dawley, rat, plasma, other: IV and oral, 1 mg/kg, rats, following IV and oral administration 1 mg/kg; read-out: apparent half-life

Compound	half-life
CC1(C)NC(=O)N(c2ccc(F)c(C(C)(F)F)c2)C1=O [Compound IC]	13 to 19 h

----------
# Assay Method Text: Pharmacokinetics in male Sprague Dawley rats
# Assay type: in vivo, rat
# Condition Description: male, Sprague Dawley, rat, plasma, po, 1 mg/kg, rats, PO 1 mg/kg, mean (n = 3); read-out: Apparent t1/2 (converted)

Mol	half-life (h)
CC1(C)NC(=O)N(c2ccc(F)c(C(C)(F)F)c2)C1=O	16

----------
# Assay Method Text: in vivo
# Design: species or system dog
# Condition Description: beagle, dog, in vivo; female dogs (n = 2), IV 1 mg/kg; read-out: Plasma AUCIV 0-last

Mol	Unit Text	AUC
[2H]C([2H])([2H])C1(C([2H])([2H])[2H])NC(=O)N(c2ccc(F)c(C(C)(F)F)c2)C1=O	µg·h/mL	405

----------
# Assay Method Text: in vivo
# Set-up: species or system dog
# Condition Description: both sexes, dog, in vivo; male and female Beagle dogs, single po administration; read-out: no observed adverse effect level (NOAEL)
# Protocol: The same 2M/2F dogs were used following 2-week washout periods for each dose level in escalation order. This was a survival study and animals were not sacrificed. The following parameters were evaluated: mortality/morbidity, clinical observations, body weights, plasma drug levels, pharmacokinetics and clinical pathology (hematology, coagulation and serum chemistry).

Mol	NOAEL
[2H]C([2H])([2H])C1(C([2H])([2H])[2H])NC(=O)N(c2ccc(F)c(C(C)(F)F)c2)C1=O	≥ 150 mg/kg

----------
# Assay Method Text: In vitro metabolic stability, dog microsomes
# Assay type: in vitro ADME
# Condition Description: liver microsomes

Mol	microsomal CLint
[2H]C([2H])([2H])C1(C([2H])([2H])[2H])NC(=O)N(c2ccc(F)c(C(C)(F)F)c2)C1=O	< 7 µL/min/mg

----------
# Assay Method Text: Partition coefficient (Log D) by gradient HPLC
# Format: physicochemical
# Condition Description: pH 7.4
# Description: Partition Coefficient. Partition coefficient values (Log D) of the test compounds were estimated by correlation of their chromatographic retention properties against the characteristics of a series of standard compounds with known partition coefficient values using gradient HPLC (modification of a method reported by Lombardo et al., 2001).
Outcome Measure: chromatographic logD

Molecule	Result
CC1(C(F)F)NC(=O)N(c2ccc(F)c(C(F)(F)F)c2)C1=O (stereo not shown) [ID]	3.2

----------
# Assay Method Text: in vivo
# Parameters: species or system dog
# Condition Description: both sexes, dog, in vivo, 1 mg/kg; Beagle dogs, single iv administration; read-out: maximum tolerated dose (MTD)
Outcome Measure: MTD

Compound	Outcome Measure	Result
[2H]C([2H])([2H])C1(C([2H])([2H])[2H])NC(=O)N(c2ccc(F)c(C(C)(F)F)c2)C1=O [Compound IE]	MTD	> 1 mg/kg

----------
# Assay Method Text: in vivo
# Design: species or system dog
# Condition Description: beagle, dog, in vivo; male dogs (n = 2), IV 1 mg/kg; read-out: Plasma AUCIV 0-last

Molecule	Unit Text	AUC
[2H]C([2H])([2H])C1(C([2H])([2H])[2H])NC(=O)N(c2ccc(F)c(C(C)(F)F)c2)C1=O [Compound IE]	µg·h/mL	526

----------
# Assay Method Text: Pharmacokinetics in male Sprague Dawley rats
# Type: in vivo, rat
# Condition Description: male, Sprague Dawley, rat, in vivo, iv, 1 mg/kg, rats, IV 1 mg/kg, individual rats; read-out: Blood CL
Outcome Measure: clearance (mL/min/kg)

Mol	Unit Text	Number
CC1(C)NC(=O)N(c2ccc(F)c(C(C)(F)F)c2)C1=O	mL/min/kg	0.664

----------
# Assay Method Text: Pharmacokinetics in male Sprague Dawley rats
# Format: in vivo, rat
# Condition Description: male, Sprague Dawley, rat, in vivo, po, 0.9 mg/kg, rats, PO 0.9 mg/kg, mean (n = 3); read-out: Tmax

Mol	Tmax
[2H]C([2H])([2H])C1(C([2H])([2H])[2H])NC(=O)N(c2ccc(F)c(C(C)(F)F)c2)C1=O	11 h

----------
# Assay Method Text: Stability in human cryopreserved hepatocytes
# Type: in vitro ADME
# Condition Description: read-out: in vitro CLint

Mol	hepatocyte CLint
[2H]C([2H])([2H])C1(C([2H])([2H])[2H])NC(=O)N(c2ccc(F)c(C(C)(F)F)c2)C1=O	< 2000 µL/min/1e6 cells

----------
# Assay Method Text: in vivo
# Design: species or system dog
# Condition Description: male, beagle, dog, in vivo, po, 15 mg/kg, male dogs (n = 2), PO 15 mg/kg; read-out: Apparent t1/2 (converted)

Molecule	half-life
[2H]C([2H])([2H])C1(C([2H])([2H])[2H])NC(=O)N(c2ccc(F)c(C(C)(F)F)c2)C1=O [Compound IE]	237 h

----------
# Assay Method Text: in vivo
# Design: species or system dog
# Condition Description: female, beagle, dog, in vivo, po, 150 mg/kg, female dogs, po 150 mg/kg; read-out: mean t1/2 (converted)

Compound	half-life, days
[2H]C([2H])([2H])C1(C([2H])([2H])[2H])NC(=O)N(c2ccc(F)c(C(C)(F)F)c2)C1=O [Compound IE]	16.8

----------
# Assay Method Text: Pharmacokinetics in male Sprague Dawley rats
# Format: in vivo, rat
# Condition Description: male, Sprague Dawley, rat, plasma, iv, 1 mg/kg, rats, IV 1 mg/kg, individual rats; read-out: Apparent t1/2 (converted)

Mol	Unit Text	half-life
CC1(C)NC(=O)N(c2ccc(F)c(C(C)(F)F)c2)C1=O	h	13

----------
# Assay Method Text: In vitro metabolic stability, rat microsomes
# Type: in vitro ADME
# Condition Description: liver microsomes

Mol	microsomal CLint
[2H]C([2H])([2H])C1(C([2H])([2H])[2H])NC(=O)N(c2ccc(F)c(C(C)(F)F)c2)C1=O	< 7 µL/min/mg

----------
# Target Of Assay: CYP 2C19 (Homo sapiens (Human), UniProt P33261)
# Sequence (P33261 whole entry): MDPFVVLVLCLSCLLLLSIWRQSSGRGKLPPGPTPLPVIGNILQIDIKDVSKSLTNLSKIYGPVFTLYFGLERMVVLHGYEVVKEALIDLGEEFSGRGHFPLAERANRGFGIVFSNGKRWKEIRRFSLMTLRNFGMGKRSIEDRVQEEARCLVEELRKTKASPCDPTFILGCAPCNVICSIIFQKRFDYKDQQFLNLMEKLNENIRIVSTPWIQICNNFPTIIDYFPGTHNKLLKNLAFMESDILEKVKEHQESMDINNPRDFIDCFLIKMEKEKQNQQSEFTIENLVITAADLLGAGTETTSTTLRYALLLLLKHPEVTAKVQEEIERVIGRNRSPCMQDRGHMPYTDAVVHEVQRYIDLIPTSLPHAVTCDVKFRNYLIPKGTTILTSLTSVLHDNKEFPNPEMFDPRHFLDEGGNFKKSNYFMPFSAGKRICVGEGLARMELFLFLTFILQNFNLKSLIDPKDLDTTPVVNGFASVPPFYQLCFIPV
# Assay Method Text: CYP inhibition in human liver microsomes, 2C19
# Format: in vitro ADME
Outcome Measure: IC50

Mol	Result
CC1(C)NC(=O)N(c2ccc(F)c(C(C)(F)F)c2)C1=O	> 20 µM

----------
# Assay Method Text: Mouse exposure / pharmacokinetic studies
# Type: in vivo, mice
# Condition Description: male, Swiss outbred, mouse, in vivo; mice, oral, mean dose 6.73 mg/kg; read-out: Plasma Cmax

Molecule	Cmax, ng/mL
[2H]C([2H])([2H])C1(C([2H])([2H])[2H])NC(=O)N(c2ccc(F)c(C(C)(F)F)c2)C1=O [Compound IE]	3760

----------
# Assay Method Text: in vivo
# Set-up: species or system dog
# Condition Description: beagle, dog, in vivo; male dogs, iv 1 mg/kg; read-out: mean plasma concentration extrapolated to time zero (C0)
Outcome Measure: C0 (ng/mL)

Mol	Outcome Measure	Number
[2H]C([2H])([2H])C1(C([2H])([2H])[2H])NC(=O)N(c2ccc(F)c(C(C)(F)F)c2)C1=O	C0	9460

----------
# Assay Method Text: Mouse exposure / pharmacokinetic studies
# Type: in vivo, mice
# Condition Description: male, Swiss outbred, mouse, in vivo; mice, oral, mean dose 55.6 mg/kg
Outcome Measure: Tmax (h)

Mol	Unit Text	Number
[2H]C([2H])([2H])C1(C([2H])([2H])[2H])NC(=O)N(c2ccc(F)c(C(C)(F)F)c2)C1=O	h	3

----------
# Assay Method Text: Pharmacokinetics in male Sprague Dawley rats
# Assay type: in vivo, rat
# Condition Description: male, Sprague Dawley, rat, plasma, po, 1 mg/kg, rats, PO 1 mg/kg, individual rats; read-out: Apparent t1/2 (converted)

Mol	half-life / h
CC1(C)NC(=O)N(c2ccc(F)c(C(C)(F)F)c2)C1=O	16

----------
# Assay Method Text: in vivo
# Set-up: species or system dog
# Condition Description: beagle, dog, in vivo; male dogs (n = 2), PO 15 mg/kg; read-out: Plasma AUCoral 0-last

Mol	AUC / µg·h/mL
[2H]C([2H])([2H])C1(C([2H])([2H])[2H])NC(=O)N(c2ccc(F)c(C(C)(F)F)c2)C1=O	8800

----------
# Assay Method Text: Mouse exposure / pharmacokinetic studies
# Format: in vivo, mice
# Condition Description: male, Swiss outbred, mouse, in vivo, po; mice, all doses 6.25 to 100 mg/kg; read-out: apparent oral bioavailability

Mol	bioavailability
[2H]C([2H])([2H])C1(C([2H])([2H])[2H])NC(=O)N(c2ccc(F)c(C(C)(F)F)c2)C1=O	≥ 80%

----------
# Assay Method Text: Mouse exposure / pharmacokinetic studies
# Type: in vivo, mice
# Condition Description: male, Swiss outbred, mouse, plasma; mice, IV, mean dose 1.0 mg/kg; read-out: Apparent t1/2 (converted)
Outcome Measure: half-life (min)

Mol	Number
CC1(C)NC(=O)N(c2ccc(F)c(C(C)(F)F)c2)C1=O	534
